# Assay Explanation: NCI Yeast Anticancer Drug Screen. Data for the rad50 strain (AID 155)
# Assay Setup: S. cerevisiae rad50 strain growth inhibition; at 50.0 µM (retest, dose inferred, filed as 5.0)
The panel holds about 79,000 compounds, 15% with a hit somewhere; the sample as a whole holds those more often. Activity calls are given as the source filed them. No stated cut-off is given here; in the data, active means growth inhibition above about 70%; inactive means the rest.
Labels: active, inactive

{"columns": ["Compound", "Label Class"],
 "data": [
  ["C=CC1(c2ccc(OC)cc2)OCCCO1", "active"],
  ["CCN(CC)CCCNc1cccc2ccc(OC)nc12", "inactive"],
  ["CC1OC(C)C(O)C2=C1C(=O)c1ccccc1C2=O (stereo unspecified)", "active"],
  ["COc1ccc2nc3cc(Cl)ccc3c(NCCC[N+](C)(C)CCCCCCCCCC[N+](C)(C)CCCNc3c4ccc(Cl)cc4nc4ccc(OC)cc34)c2c1", "active"],
  ["COC(=Nc1ccccc1)SSC(C)C", "active"],
  ["O=C(O)C1CCC(CC2CC3CCC2C3)CC1 (stereo unspecified)", "active"],
  ["CC(=O)N(C)c1ccc2c(c1)Cc1ccccc1-2", "inactive"],
  ["COc1ccc2c(c1)O[C@H]1c3ccc(O)cc3OC[C@@H]21", "inactive"],
  ["CC1CCN(CCOC(=O)C(c2ccccc2)C2C=CCCC2)C1C (stereo unspecified)", "inactive"],
  ["O=[N+]([O-])c1ccc(/C=N/O)s1", "active"],
  ["O=CCCCc1cc2c(cc1Br)CCC2", "inactive"],
  ["O=C(Cc1nc2ccccc2s1)Nc1cccc(C(F)(F)F)c1", "active"],
  ["O=C(CCl)Nc1cc(Cl)ccc1Cl", "inactive"],
  ["CC1NS(=O)(=O)N(C)C1=O (stereo unspecified)", "inactive"],
  ["C/C(=N/NC(=S)Nc1ccc(C)cc1)c1ccccn1", "active"],
  ["CS(=O)(=O)OCCN(CCOS(C)(=O)=O)c1ccc(C=Nc2cccc(Br)c2)c(Cl)c1", "inactive"],
  ["CCN1/C(=C\\c2cc(C)nc(-c3ccccc3)[n+]2C)C=Cc2ccccc21", "active"],
  ["O=C1OC(c2ccccc2)(c2ccccc2)CC1CN1CCOCC1 (stereo unspecified)", "active"],
  ["CC(CN(C)C)C(=O)/C=C/c1c(Cl)cccc1Cl (stereo unspecified)", "active"],
  ["C1CCC(CCCCc2nn[nH]n2)CC1", "active"],
  ["CCCCCCCCCCCCCC1OC(=O)C(C)=C1C(=O)O (stereo unspecified)", "inactive"],
  ["CCC1([N+](=O)[O-])COC(c2ccc3c(c2)OCO3)OC1 (stereo unspecified)", "inactive"],
  ["O=C1Nc2c(Cl)cc(Cl)cc2/C1=N/N=C/c1ccco1", "active"],
  ["O=C(NC1CCN(Cc2ccccc2)CC1)c1ccc(I)cc1", "inactive"],
  ["S=c1[nH]c2cc(Cl)ccc2s1.[Zn+2]", "active"],
  ["Cc1ccc(C(Cl)(c2ccc(C)cc2)c2ccc(C)cc2)cc1", "active"],
  ["CN(C)C(=S)S(=O)(=O)CCCCS(=O)(=O)C(=S)N(C)C", "inactive"],
  ["Cc1cc(N(CCOS(C)(=O)=O)CCOS(C)(=O)=O)ccc1C=Nc1ccccc1C(=O)O", "active"],
  ["O=C(O)c1ccc(C(=O)c2ccccc2C(=O)O)cc1", "inactive"],
  ["Cc1cc(C2CCCCC2)n(O)c(=O)c1", "active"],
  ["CCCCC(=O)OC1=C(Br)C(=O)c2ccccc2C1=O", "active"]
]}
